These entries and their values trace back to PubChem BioAssay (NCI).

tested on: MDA-MB-468 breast; assay: NCI tumour cell line growth inhibition, 48 h; in the data active = GI50 below about 0.43 µM; inactive = the rest
Pick one and only one: 1 for active, -1 for inactive

stdin: Assay outcome for C=C1CC[C@@H]2C(C)(C)[C@H](O)CC[C@@]2(C)[C@@H]1COc1ccc2ccc(=O)oc2c1 : what was it?
stdout: -1

* * *

test system: IGROV1 ovarian; assay: NCI tumour cell line growth inhibition, 48 h
readout: TGI

>>> df
                                   compound  experimental_result
0      Cc1ccccc1Nc1nnc(-c2c[nH]c3ccccc23)o1          > 100000 nM
1  O=C(Cc1ccc2c(c1)CN(C1CCC(=O)NC1=O)C2=O)NCCc1ccccc1 (centres undefined)              1080 nM
2  CCN1C(=O)N(CC)C2NNC(Sc3c(C(=O)O)c4ccccc4n(CCC(C)C)c3=O)=NC21 (centres undefined)             18100 nM

Attention now shifts to the item below.
stdin: Using known records, supply TGI for O=C(CNc1nc(-c2ccccc2)cs1)Nc1ccc(Cl)cc1
stdout: 1750 nM
